System: LNCaP (human prostate carcinoma)
Test: Cell proliferation (MTS) assay, LNCaP
Assay type: cell-based
Conditions: Homo sapiens, LNCaP, 72 h, Table 2; three days treatment
# IC50 annotations

Consider the reported IC50 for these compounds:
[[record]]
compound = "COCC1OC(=O)C(=CN2CCN(CCCN(C)C)CC2)C2=C(O)C(=O)C3=C(C(OC(C)=O)CC4(C)C(O)CCC34)C21C (stereo not shown) [Compound 32]"
result = "0.5 µg/mL"

[[record]]
compound = "COCC1OC(=O)C(=CN(C)CC(=O)OC(C)(C)C)C2=C(O)C(=O)C3=C(C(OC(C)=O)CC4(C)C(O)CCC34)C21C (stereo not shown) [Compound 35]"
result = "0.1 µg/mL"

[[record]]
compound = "COC[C@H]1OC(=O)/C(=C/N(C)CCCN(C)C)C2=C(O)C(=O)C3=C([C@H](OC(C)=O)C[C@@]4(C)C3CC[C@@H]4O)[C@]21C (stereo partly shown) [Compound 5]"
result = "0.28 µg/mL"

[[record]]
compound = "COCC1OC(=O)C(=CN(C)CCCN2CCOCC2)C2=C(O)C(=O)C3=C(C(OC(C)=O)CC4(C)C(O)CCC34)C21C (stereo not shown) [Compound 27]"
result = "0.35 µg/mL"

[[record]]
compound = "COC[C@H]1OC(=O)/C(=C/N(C)CCCN(C)C)C2=C(O)C(=O)C3=C([C@H](O)C[C@@]4(C)C3CC[C@@H]4O)[C@]21C (stereo partly shown) [Compound 60]"
result = "0.33 µg/mL"

[[record]]
compound = "COCC1OC(=O)C(=CN(C)CC(O)CO)C2=C(O)C(=O)C3=C(C(OC(C)=O)CC4(C)C(O)CCC34)C21C (stereo not shown) [Compound 36]"
result = "0.09 µg/mL"


Let us examine a further case.
// query Name the recorded IC50 of the item CCCCN(C)/C=C1/C(=O)O[C@H](COC)[C@@]2(C)C1=C(O)C(=O)C1=C2[C@H](OC(C)=O)C[C@@]2(C)C1CC[C@@H]2O (stereo partly shown) [Compound 8] in your answer.
// result 0.12 µg/mL

* * *

System: MDA468 (human breast cancer cell)
Test: Cell proliferation (MTS) assay, MDA468
Type: cell-based
Details: Homo sapiens, 72 h, Table 1; three days treatment
readout_label: IC50 (µg/mL)
Answer with a number only, understood to be in µg/mL.

Look over these answered cases.
[[record]]
compound = "COC[C@H]1OC(=O)/C(=C/N2CCN(c3ccccc3)CC2)C2=C(O)C(=O)C3=C([C@H](OC(C)=O)C[C@@]4(C)C3CC[C@@H]4O)[C@]21C (stereo partly drawn)"
measurement_unit = "µg/mL"
readout_number = 2

[[record]]
compound = "COC[C@H]1OC(=O)/C(=C/N2CCN(C3CCCCC3)CC2)C2=C(O)C(=O)C3=C([C@H](OC(C)=O)C[C@@]4(C)C3CC[C@@H]4O)[C@]21C (stereo partly drawn)"
measurement_unit = "µg/mL"
readout_number = 2

[[record]]
compound = "COC[C@H]1OC(=O)/C(=C/N2CCCC2)C2=C(O)C(=O)C3=C([C@H](OC(C)=O)C[C@]4(C)[C@@H](O)CC[C@@H]34)[C@]21C"
measurement_unit = "µg/mL"
readout_number = 1

[[record]]
compound = "CCCCSC=C1C(=O)OC(COC)C2(C)C1=C(O)C(=O)C1=C2C(OC(C)=O)CC2(C)C(O)CCC12 (stereo not drawn)"
measurement_unit = "µg/mL"
readout_number = 3.85

[[record]]
compound = "COC[C@H]1OC(=O)/C(=C/N2CCCCC2)C2=C(O)C(=O)C3=C([C@H](OC(C)=O)C[C@@]4(C)C3CC[C@@H]4O)[C@]21C (stereo partly drawn)"
measurement_unit = "µg/mL"
readout_number = 1.8


Let us examine a further case.
// query Find the measured IC50 of COCC1OC(=O)C(=CN(CCN(C)C)Cc2ccccc2)C2=C(O)C(=O)C3=C(C(OC(C)=O)CC4(C)C(O)CCC34)C21C (stereo not drawn) with MDA468 (human breast cancer cell) as test system.
// result 3.4

* * *

The following compounds are shown together with reported IC50 values.
Target: Human TOR (Homo sapiens)
Construct: FLAG
Test: Human TOR (mTOR) kinase assay, DELFIA format
Format: biochemical
Conditions: Table 2
The figure you give is taken to be in nM; do not add the unit.

Some solved entries appear below for comparison.
[[record]]
compound = "COC[C@H]1OC(=O)/C(=C/N(C)CCCN(C)C)C2=C(O)C(=O)C3=C([C@H](O)C[C@@]4(C)C3CC[C@@H]4O)[C@]21C (stereo partly drawn) [Compound 60]"
measurement_unit = "nM"
readout_number = 396

[[record]]
compound = "COCC1OC(=O)C(=CN2CCC2C(=O)O)C2=C(O)C(=O)C3=C(C(OC(C)=O)CC4(C)C(O)CCC34)C21C (stereo not drawn) [Compound 38]"
measurement_unit = "nM"
readout_number = 9590

[[record]]
compound = "COCC1OC(=O)C(=CN2CCOCC2)C2=C(O)C(=O)C3=C(C(OC(C)=O)CC4(C)C(O)CCC34)C21C (stereo not drawn) [Compound 48]"
measurement_unit = "nM"
readout_number = 831

[[record]]
compound = "COCC1OC(=O)C(=CN2CCN(CCN3CCOCC3)CC2)C2=C(O)C(=O)C3=C(C(OC(C)=O)CC4(C)C(O)CCC34)C21C (stereo not drawn) [Compound 33]"
measurement_unit = "nM"
readout_number = 619


// query # return recorded IC50 for input COCC1OC(=O)C(=CN2CCC(C(=O)O)CC2)C2=C(O)C(=O)C3=C(C(OC(C)=O)CC4(C)C(O)CCC34)C21C (stereo not drawn) [Compound 23]
// result 822

// query Check the records and state IC50 for COCC1OC(=O)C(=CN2CCN(CCCN(C)C)CC2)C2=C(O)C(=O)C3=C(C(OC(C)=O)CC4(C)C(O)CCC34)C21C (stereo not drawn) [Compound 32]
// result 249

* * *

Molecular target: Human TOR (Homo sapiens, UniProt P42345)
Construct: FLAG
Test: Human TOR (mTOR) kinase assay, DELFIA format
Format: biochemical
Settings: Table 1
Catalogue of log10 of IC50 values
Please interpret these as log10 of IC50 where IC50 is in µM.

Reference set (2 entries):
[[record]]
molecule = "COC[C@H]1OC(=O)/C(=C/N2CCN(C)CC2)C2=C(O)C(=O)C3=C([C@H](OC(C)=O)C[C@@]4(C)C3CC[C@@H]4O)[C@]21C (stereo partly drawn)"
tested_system = "Human TOR (Homo sapiens, UniProt P42345)"
readout_label = "log10 of IC50"
readout_number = -0.08

[[record]]
molecule = "COC[C@H]1OC(=O)/C(=C/N(C)C2CCCCC2)C2=C(O)C(=O)C3=C([C@H](OC(C)=O)C[C@@]4(C)C3CC[C@@H]4O)[C@]21C (stereo partly drawn)"
tested_system = "Human TOR (Homo sapiens, UniProt P42345)"
readout_label = "log10 of IC50"
readout_number = 1.94


// query Answer with the recorded log10 of IC50 of COC[C@H]1OC(=O)/C(=C/N2CCN(C3CCCCC3)CC2)C2=C(O)C(=O)C3=C([C@H](OC(C)=O)C[C@@]4(C)C3CC[C@@H]4O)[C@]21C (stereo partly drawn) only.
// result -0.09

* * *

Molecular target: Human TOR (Homo sapiens, UniProt P42345)
Construct: FLAG
Assay: Human TOR (mTOR) kinase assay, DELFIA format
Type: biochemical
Details: Table 2
Entries and their pIC50 values follow.
// pIC50 is dimensionless: -log10 of concentration (M)

// query Report pIC50 for CCN(C=C1C(=O)OC(COC)C2(C)C1=C(O)C(=O)C1=C2C(OC(C)=O)CC2(C)C(O)CCC12)CCN(C)C (stereo not shown) [Compound 46]
// result 6.06

// query Answer with reported pIC50 of COCC1OC(=O)C(=CN(C)CCCC(=O)O)C2=C(O)C(=O)C3=C(C(OC(C)=O)CC4(C)C(O)CCC34)C21C (stereo not shown) [Compound 37]
// result 4.90

// query Consider the compound COCC1OC(=O)C(=CN2CCN(C3CCN(C)CC3)CC2)C2=C(O)C(=O)C3=C(C(OC(C)=O)CC4(C)C(O)CCC34)C21C (stereo not shown) [Compound 34] and give its recorded pIC50.
// result 6.02

// query Please indicate pIC50 recorded for COCC1OC(=O)C(=CN(CCCN(C)C)CCCN(C)C)C2=C(O)C(=O)C3=C(C(OC(C)=O)CC4(C)C(O)CCC34)C21C (stereo not shown) [Compound 21]
// result 5.45

// query Look up and state reported pIC50 for COC[C@H]1OC(=O)/C(=C/N2CCN(c3ccccc3)CC2)C2=C(O)C(=O)C3=C([C@H](OC(C)=O)C[C@@]4(C)C3CC[C@@H]4O)[C@]21C (stereo partly shown) [Compound 13]
// result 6.11

// query Given the compound COCC1OC(=O)C(=CN2CCC(=O)CC2)C2=C(O)C(=O)C3=C(C(OC(C)=O)CC4(C)C(O)CCC34)C21C (stereo not shown) [Compound 44] , write its reported pIC50.
// result 5.95

// query // fetch pIC50 given entry COCC1OC(=O)C(=CN(C)CCN(C)C)C2=C(O)C(=O)C3=C(C(OC(C)=O)CC4(C)C(O)CCC34)C21C (stereo not shown) [Compound 31]
// result 5.89
